Target: T1, human CD228 (R&D Systems Custom02; Lot DCWR021505A) (human, UniProt P08582 20-709, limits assumed)
T1 construct: Bought custom protein coated on ELISA plates; also called CD228 protein; melanotransferrin
T1 sequence (looked up): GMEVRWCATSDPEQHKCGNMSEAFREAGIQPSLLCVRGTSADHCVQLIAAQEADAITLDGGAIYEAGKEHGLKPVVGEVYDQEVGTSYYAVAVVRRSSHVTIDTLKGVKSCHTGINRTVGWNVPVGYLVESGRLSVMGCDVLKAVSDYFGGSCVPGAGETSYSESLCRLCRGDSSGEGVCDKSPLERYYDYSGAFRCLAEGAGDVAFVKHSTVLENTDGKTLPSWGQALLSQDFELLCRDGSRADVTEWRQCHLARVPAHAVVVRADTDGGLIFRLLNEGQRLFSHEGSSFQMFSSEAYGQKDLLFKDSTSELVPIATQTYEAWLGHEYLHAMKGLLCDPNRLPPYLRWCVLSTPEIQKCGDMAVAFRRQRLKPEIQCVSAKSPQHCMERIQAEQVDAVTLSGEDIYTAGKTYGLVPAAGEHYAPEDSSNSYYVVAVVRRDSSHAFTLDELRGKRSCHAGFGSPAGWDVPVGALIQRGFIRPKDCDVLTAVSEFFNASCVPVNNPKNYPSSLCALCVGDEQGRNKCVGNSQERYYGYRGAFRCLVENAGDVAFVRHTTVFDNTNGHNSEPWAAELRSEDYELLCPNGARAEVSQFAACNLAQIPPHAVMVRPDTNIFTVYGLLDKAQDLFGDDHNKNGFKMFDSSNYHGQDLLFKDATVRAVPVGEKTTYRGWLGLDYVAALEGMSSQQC
Experiment: ELISA, coated human CD228, pH 6.30
REPORTED METRIC: pEC50
Please note pEC50 is a logarithmic value: minus log10 of concentration in mol/L. Answer with that number alone.

Let me know recorded pEC50 for hL49_27D_Tyr (antibody, V domains shown, hL49 variant with the light chain CDR-L1 histidine 27D changed to tyrosine) VH: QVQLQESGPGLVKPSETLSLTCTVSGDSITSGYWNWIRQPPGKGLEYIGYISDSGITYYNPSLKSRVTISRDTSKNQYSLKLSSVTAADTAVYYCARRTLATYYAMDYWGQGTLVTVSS VL: DFVMTQSPLSLPVTLGQPASISCRASQSLVYSDGNTYLHWYQQRPGQSPRLLIYRVSNRFSGVPDRFSGSGSGTDFTLKISRVEAEDVGVYYCSQSTHVPPTFGQGTKLEIK , thanks.
9.02
